ASSAYED SYSTEM: human CYP11B2 (Homo sapiens (Human), UniProt P19099)
Sequence (P19099 25-503): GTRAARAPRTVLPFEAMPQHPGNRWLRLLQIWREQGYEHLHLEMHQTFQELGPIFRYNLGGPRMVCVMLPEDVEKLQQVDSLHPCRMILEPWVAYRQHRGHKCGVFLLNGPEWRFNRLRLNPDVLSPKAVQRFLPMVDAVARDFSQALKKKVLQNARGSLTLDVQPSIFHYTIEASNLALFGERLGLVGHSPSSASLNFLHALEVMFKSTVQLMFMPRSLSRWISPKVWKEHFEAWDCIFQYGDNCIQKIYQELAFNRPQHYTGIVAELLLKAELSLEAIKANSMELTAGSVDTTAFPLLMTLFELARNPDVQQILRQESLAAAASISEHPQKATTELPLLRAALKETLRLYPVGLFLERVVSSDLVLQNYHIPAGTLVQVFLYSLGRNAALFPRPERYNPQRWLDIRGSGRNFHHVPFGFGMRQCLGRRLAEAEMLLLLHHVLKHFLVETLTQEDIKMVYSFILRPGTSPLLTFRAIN
PROTOCOL: V79-Human-CYP11B2 cell assay
RUN PARAMETERS: V79 cells stably expressing human CYP11B2; 125 nM 11-deoxycorticosterone substrate; aldosterone measured by HTRF
Task for the reader: assign each of the following compounds its reported pIC50.
Numbers only, as −log10 of the molar value.

The cases that follow already have their pIC50 on record.
1) COc1cncc(-c2nc3ccc(F)cn3c2C)c1 [Example 18]: 9.52
2) Cc1ccncc1-c1cn2cc(F)ccc2n1 [Example 6]: 7.65
3) Cc1c(-c2cncc(F)c2)nc2cc(F)ccn12 [Example 26]: 8.33

Give measured pIC50 for every item shown.
1. Cc1cncc(-c2nc3ccc(F)cn3c2C)c1 [Example 19]
2. Cc1ccncc1-c1nc2ccc(F)cn2c1C [Example 20]
3. Cc1cncc(-c2cn3cc(F)ccc3n2)c1 [Example 7]
4. Cc1c(-c2cncc3ccccc23)nc2ccc(F)cn12 [Example 25]

1: 9.35; 2: 8.66; 3: 7.25; 4: 10.00

----------
ASSAYED SYSTEM: human CYP11B1 (Homo sapiens (Human))
Sequence (P15538 25-503): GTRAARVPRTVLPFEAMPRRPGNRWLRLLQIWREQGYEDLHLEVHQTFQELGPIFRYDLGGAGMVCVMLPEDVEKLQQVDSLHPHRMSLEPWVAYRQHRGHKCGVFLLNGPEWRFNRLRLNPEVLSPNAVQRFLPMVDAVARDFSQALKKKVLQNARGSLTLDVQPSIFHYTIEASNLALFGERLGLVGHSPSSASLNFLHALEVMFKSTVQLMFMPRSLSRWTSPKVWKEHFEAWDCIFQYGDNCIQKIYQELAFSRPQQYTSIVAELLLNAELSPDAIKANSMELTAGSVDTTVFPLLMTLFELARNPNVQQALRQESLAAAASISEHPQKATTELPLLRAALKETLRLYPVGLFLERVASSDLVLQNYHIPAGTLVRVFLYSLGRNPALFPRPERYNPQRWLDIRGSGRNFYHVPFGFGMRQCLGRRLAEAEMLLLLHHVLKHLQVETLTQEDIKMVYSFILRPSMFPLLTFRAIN
PROTOCOL: V79-Human-CYP11B1 cell assay
RUN PARAMETERS: V79 cells stably expressing human CYP11B1; 250 nM 11-deoxycortisol substrate; cortisol measured by HTRF
Procedure: Methods for V79-Human-CYP11B2 and V79-Human-CYP11B1 Assays: V79 cell lines stably expressing the either the human CYP11B2 or the human CYP11B1 enzyme were generated using a standard transfection protocol. […] The amount of product in the supernatant (aldosterone for CYP11B2 assay and cortisol for the CYP11B1 assay) was measured using HTRF-based assay kit (Aldosterone HTRF-CisBio#64ALDPEB, Cortisol HTRF-CisBio #63IDC002-CORT). […]
Task for the reader: assign each of the following compounds its reported pIC50.
One number for each entry, as −log10 of the molar value.

The cases that follow already have their pIC50 on record.
1. Cc1cncc(-c2nc3ccc(F)cn3c2C)c1 [Example 19]: 7.39
2. Cc1ccncc1-c1nc2ccc(F)cn2c1C [Example 20]: 6.87
3. COc1cncc(-c2nc3ccc(F)cn3c2C)c1 [Example 18]: 7.49

Give measured pIC50 for every item shown.
1. Cc1c(-c2cncc(F)c2)nc2cc(F)ccn12 [Example 26]
2. Cc1c(-c2cncc3ccccc23)nc2ccc(F)cn12 [Example 25]

[6.04, 7.83]

Data provenance: patent US9518055B2
